Assay read-out pIC50 on UniProt P47820; records merged from the literature.
- targetOrTestSystem: UniProt P47820
- Sequence (P47820 whole entry): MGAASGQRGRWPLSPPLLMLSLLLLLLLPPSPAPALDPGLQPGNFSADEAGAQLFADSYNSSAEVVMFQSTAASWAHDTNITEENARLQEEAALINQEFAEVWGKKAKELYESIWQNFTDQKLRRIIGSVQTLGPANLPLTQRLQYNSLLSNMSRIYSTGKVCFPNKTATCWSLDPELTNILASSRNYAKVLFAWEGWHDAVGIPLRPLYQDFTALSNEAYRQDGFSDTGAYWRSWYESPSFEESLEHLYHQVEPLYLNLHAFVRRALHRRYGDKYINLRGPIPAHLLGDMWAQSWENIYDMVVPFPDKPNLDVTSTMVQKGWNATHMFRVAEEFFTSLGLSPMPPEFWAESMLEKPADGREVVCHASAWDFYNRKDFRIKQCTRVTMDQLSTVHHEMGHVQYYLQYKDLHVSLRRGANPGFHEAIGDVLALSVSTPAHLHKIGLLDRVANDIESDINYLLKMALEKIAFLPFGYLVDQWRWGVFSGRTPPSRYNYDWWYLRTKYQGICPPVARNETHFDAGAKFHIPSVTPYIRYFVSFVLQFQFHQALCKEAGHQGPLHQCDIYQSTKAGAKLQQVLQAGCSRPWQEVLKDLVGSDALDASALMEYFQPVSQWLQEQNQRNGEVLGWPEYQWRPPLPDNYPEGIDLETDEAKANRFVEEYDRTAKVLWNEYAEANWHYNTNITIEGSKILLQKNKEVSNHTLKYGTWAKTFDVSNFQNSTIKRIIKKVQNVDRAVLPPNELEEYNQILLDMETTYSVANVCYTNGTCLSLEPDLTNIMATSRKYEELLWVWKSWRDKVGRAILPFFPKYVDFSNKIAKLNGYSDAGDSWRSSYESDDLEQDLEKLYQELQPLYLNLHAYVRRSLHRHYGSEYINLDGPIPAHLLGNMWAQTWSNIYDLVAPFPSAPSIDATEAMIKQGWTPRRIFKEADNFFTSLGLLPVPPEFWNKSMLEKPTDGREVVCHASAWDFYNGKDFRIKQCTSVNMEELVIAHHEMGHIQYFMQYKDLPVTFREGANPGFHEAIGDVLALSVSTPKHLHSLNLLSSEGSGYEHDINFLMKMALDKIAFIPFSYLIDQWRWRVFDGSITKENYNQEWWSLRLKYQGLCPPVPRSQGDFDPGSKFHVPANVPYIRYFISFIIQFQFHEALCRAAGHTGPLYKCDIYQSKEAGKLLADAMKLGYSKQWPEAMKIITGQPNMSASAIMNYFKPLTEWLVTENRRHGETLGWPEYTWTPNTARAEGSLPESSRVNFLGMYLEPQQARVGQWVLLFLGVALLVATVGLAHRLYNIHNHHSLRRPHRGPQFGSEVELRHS
pIC50: −log10 of the molar value.
# label = label 1 if pIC50 >= 8 else label 0

compound | assignedLabel
O=C(O)[C@@H]1CCCN1C(=O)[C@@H]1CCC[C@H]1S | label 0
O=C(O)c1ccc(CC(S)C(=O)NCC(=O)N2[C@@H](c3ccccc3O)CC[C@H]2C(=O)O)cc1 (some centres not stated) | label 1
CCOC(=O)C(CCc1ccccc1)N1C(=O)C2CC3CCCCC3N2C(=O)C1C (configuration not stated) | label 0
O=C(NCC(=O)N1[C@@H](c2cccc(O)c2)CC[C@H]1C(=O)O)[C@@H](S)Cc1ccc(O)cc1 | label 1
C[C@H](CS)C(=O)N1C[C@@H](Oc2ccccc2)C[C@H]1C(=O)O | label 0
C[C@H](NC(=O)[C@@H](S)CCc1ccccc1)C(=O)N1CCCC1C(=O)O (some centres not stated) | label 1
O=C(SCCC(=O)N1c2ccccc2CC1C(=O)O)c1ccccc1 (configuration not stated) | label 0
CC1(C)CC[C@H](C(=O)N2CCC[C@H]2C(=O)O)[C@H]1S | label 0
CC[C@H](C)[C@H](S)C(=O)N[C@H](C(=O)N[C@@H](Cc1ccc(O)cc1)C(=O)O)C(C)C | label 1
CCOC(=O)[C@H](CCc1ccccc1)N[C@H]1CCc2ccccc2N(CC(=O)O)C1=O | label 1
O=C(O)[C@@H]1CCCN1C(=O)[C@H]1CCC[C@@H]1S | label 0
CC[C@H](C)[C@H](S)C(=O)N[C@@H](C)C(=O)N1c2ccccc2CC1C(=O)O (some centres not stated) | label 1
C[C@H](CS)C(=O)N1C[C@@H](C2CCCCC2)C[C@H]1C(=O)O | label 1
C[C@H](NC(=O)[C@H](Cc1ccccc1)NC(=O)CS)C(=O)O | label 0
C[C@H](CSC[C@@H](C)C(=O)N1c2ccccc2C[C@H]1C(=O)O)C(=O)N1c2ccccc2C[C@H]1C(=O)O | label 0
CCOC(=O)[C@H](CCc1ccccc1)N[C@@H](C)C(=O)N1CC2(C[C@H]1C(=O)O)SCCS2 | label 0
O=C(O)[C@H](CO)NC(=O)[C@H](Cc1ccccc1)N[C@@H](CCc1ccccc1)C(=O)O | label 0
C[C@H](NC(=O)[C@@H](S)Cc1ccccc1)C(=O)N1C(C(=O)O)CC2CCCCC21 (some centres not stated) | label 1
C[C@H](CS)C(=O)N1C[C@H](O)C[C@H]1C(=O)O | label 0
O=C(N[C@H]1CCC[C@H]2SCC[C@@H](C(=O)O)N2C1=O)[C@@H](S)Cc1ccccc1 | label 0
Nc1ccc([C@H]2CC[C@@H](C(=O)O)N2C(=O)CNC(=O)[C@@H](S)Cc2ccc(O)cc2)cc1 | label 0
CC(C)[C@H](NC(=O)[C@@H](S)Cc1ccccc1)C(=O)N1CCCC1C(=O)O (some centres not stated) | label 1
O=C(NC1(C(=O)O)CCCC1)[C@H](Cc1ccccc1)NC(=O)[C@@H](S)Cc1ccccc1 | label 0
O=C(O)[C@@H]1CCCN1C(=O)[C@@H]1CC[C@H]1S | label 0
CC1(C)CC[C@@H](C(=O)N2CCC[C@H]2C(=O)O)[C@H]1SC(=O)c1ccccc1 | label 0
C[C@@H]1CSC(=O)[C@H]2Cc3ccccc3N2C1=O | label 0
O=C(O)C1CCCN1C(=O)[C@H](Cc1ccccc1)NC(=O)[C@@H](S)Cc1ccccc1 (some centres not stated) | label 1
C[C@H](CS)C(=O)N1C[C@@H](Sc2ccc3ccccc3c2)C[C@H]1C(=O)O | label 0
CCCC[C@H](NC(=O)[C@@H](S)Cc1ccccc1)C(=O)N[C@@H](Cc1ccc(O)cc1)C(=O)O | label 1
CC(c1ccccc1)[C@H](S)C(=O)N[C@H](C(=O)N1CCCC[C@H]1C(=O)O)C(C)C (some centres not stated) | label 0
CC(C)(C)OC(=O)[C@@H]1CCCN1C(=O)[C@H]1CCC[C@@H]1SC(=O)c1ccccc1 | label 0

====

Assay read-out log10 of IC50 on Angiotensin-converting enzyme (Rattus norvegicus, UniProt P47820); records merged from the literature.
parameterMeasured: log10 of IC50 (log10 of the value in nM)

molecule | parameterMeasured | recordedNumber
CC1CCCC(C(=O)O)N1C(=O)CCS (stereo not given) | log10 of IC50 | 2.00
C[C@H](NC(=O)[C@@H](S)Cc1ccccc1)C(=O)O | log10 of IC50 | 1.60
CC(C)(C)OC(=O)[C@@H]1CCCN1C(=O)[C@@H]1CCC(C)(C)[C@@H]1SC(=O)c1ccccc1 | log10 of IC50 | 5.40
Cc1ccccc1C1CC[C@@H](C(=O)O)N1C(=O)CNC(=O)[C@@H](S)Cc1ccc(O)cc1 (single isomer, unassigned) | log10 of IC50 | 0.70
C[C@H](CS)C(=O)N1C[C@@H]([S+]([O-])c2ccccc2)C[C@H]1C(=O)O (stereo not given in full) | log10 of IC50 | 1.66
CC[C@@H](C)[C@H](NC(=O)[C@@H](S)c1ccccc1)C(=O)N1CCCC1C(=O)O (stereo not given in full) | log10 of IC50 | 1.45
CS[C@@H]1C[C@@H](C(=O)O)N(C(=O)[C@H](C)N[C@@H](CCc2ccccc2)C(=O)O)C1 | log10 of IC50 | 0.70
CC(=O)SCC(C)C(=O)Nc1ccccc1 (stereo not given) | log10 of IC50 | 3.00
C[C@H](NC(=O)[C@@H](S)Cc1ccccc1)C(=O)N1[C@@H](c2ccccc2)CC[C@H]1C(=O)O | log10 of IC50 | 1.65
Nc1ccc(C[C@H](S)C(=O)NCC(=O)N2[C@@H](c3ccccc3)CC[C@H]2C(=O)O)cc1 | log10 of IC50 | 0.54
O=C(NCC(=O)N1[C@@H](c2ccccc2O)CC[C@H]1C(=O)O)[C@@H](S)Cc1ccccc1 | log10 of IC50 | -0.30
CC(C)C[C@H](NC(=O)[C@@H](S)Cc1ccccc1)C(=O)N[C@@H](Cc1ccc(O)cc1)C(=O)O | log10 of IC50 | 0.48
O=C(O)CN1C(=O)[C@@H](NC(CCc2ccccc2)C(=O)O)CSc2ccccc21 (stereo not given in full) | log10 of IC50 | 0.99
Cc1ccccc1[C@@H]1CCC(C(=O)O)N1C(=O)CNC(=O)[C@@H](S)Cc1ccccc1 (single isomer, unassigned; 17) | log10 of IC50 | 1.52
CCOC(=O)C(CCc1ccccc1)N[C@H]1CSc2ccccc2N(CC(=O)O)C1=O (stereo not given in full) | log10 of IC50 | 3.90
CC[C@@H](C)[C@H](NC(=O)[C@@H](S)C(C)OCc1ccccc1)C(=O)N[C@@H](Cc1ccc(O)cc1)C(=O)O (stereo not given in full) | log10 of IC50 | 0.85
CO[C@@H]1C[C@@H](C(=O)O)N(C(=O)[C@H](C)CS)C1 | log10 of IC50 | 1.08
CCOC(=O)C(CCc1ccccc1)NC1CSc2ccccc2N(CC(=O)O)C1=O (stereo in doubt; 14a) | log10 of IC50 | 2.93
Cc1ccccc1C1CC[C@H](C(=O)O)N1C(=O)CNC(=O)[C@@H](S)Cc1ccccc1 (single isomer, unassigned) | log10 of IC50 | 2.05
Cc1cccc(C2CCC(C(=O)O)N2C(=O)CNC(=O)[C@@H](S)Cc2ccc(O)cc2)c1 (stereo not given in full) | log10 of IC50 | 0.49
C[C@H](CS)C(=O)N1CC(=O)C[C@H]1C(=O)O | log10 of IC50 | 1.20
CC(=O)SCC(C)C(=O)N1c2ccccc2CC1C(=O)O (stereo in doubt; form 1) | log10 of IC50 | 4.18
CC(CS)C(=O)N1[C@H](C(=O)O)C[C@@H]2CCCC[C@@H]21 (stereo in doubt; 9d) | log10 of IC50 | 3.04
C[C@H](N[C@@H](CCc1ccccc1)C(=O)O)C(=O)N1N=C(C(C)(C)C)S[C@H]1C(=O)O | log10 of IC50 | -0.29
CC(C)(C)OC(=O)[C@@H]1CCCN1C(=O)[C@H]1CCC[C@H]1SC(=O)c1ccccc1 | log10 of IC50 | 5.09
CCC[C@H](N[C@@H](C)C(=O)N1N=C(C(C)(C)C)S[C@H]1C(=O)O)C(=O)O | log10 of IC50 | -0.22
O=C(O)CN1C(=O)[C@@H](NC(=O)[C@@H](S)Cc2ccccc2)CCc2ccccc21 | log10 of IC50 | 1.08
COc1ccc(C[C@H](S)C(=O)NCC(=O)N2[C@@H](c3ccccc3OC)CC[C@H]2C(=O)O)cc1 | log10 of IC50 | 0.34
C[C@H](N[C@@H](CCc1ccccc1)C(=O)O)C(=O)N1N=C(c2ccccc2)S[C@H]1C(=O)O | log10 of IC50 | 0.18
C[C@H](NC(=O)[C@@H](S)Cc1ccccc1)C(=O)N1CCCCC1C(=O)O (stereo not given in full) | log10 of IC50 | 0.20
CC(CS)C(=O)N1[C@H](C(=O)O)C[C@@H]2CCCC[C@@H]21 (stereo in doubt; 9c) | log10 of IC50 | 0.89
CC(C)(C)C1=NN(C(=O)[C@H](CCCCN)N[C@@H](CCc2ccccc2)C(=O)O)[C@H](C(=O)O)S1 | log10 of IC50 | -0.15
C[C@H](NC(=O)[C@H](S)Cc1ccccc1)C(=O)N1CCC[C@H]1C(=O)O | log10 of IC50 | 1.40
